- measurement target: T1, murine CD22 protein (ACROBiosystems, SI2-M52Ha) (murine, UniProt P35329 22-708)
- T1 construct: extracellular domain; also called murine CD22-ECD; murine CD22-ECD-His
- T1 sequence (looked up): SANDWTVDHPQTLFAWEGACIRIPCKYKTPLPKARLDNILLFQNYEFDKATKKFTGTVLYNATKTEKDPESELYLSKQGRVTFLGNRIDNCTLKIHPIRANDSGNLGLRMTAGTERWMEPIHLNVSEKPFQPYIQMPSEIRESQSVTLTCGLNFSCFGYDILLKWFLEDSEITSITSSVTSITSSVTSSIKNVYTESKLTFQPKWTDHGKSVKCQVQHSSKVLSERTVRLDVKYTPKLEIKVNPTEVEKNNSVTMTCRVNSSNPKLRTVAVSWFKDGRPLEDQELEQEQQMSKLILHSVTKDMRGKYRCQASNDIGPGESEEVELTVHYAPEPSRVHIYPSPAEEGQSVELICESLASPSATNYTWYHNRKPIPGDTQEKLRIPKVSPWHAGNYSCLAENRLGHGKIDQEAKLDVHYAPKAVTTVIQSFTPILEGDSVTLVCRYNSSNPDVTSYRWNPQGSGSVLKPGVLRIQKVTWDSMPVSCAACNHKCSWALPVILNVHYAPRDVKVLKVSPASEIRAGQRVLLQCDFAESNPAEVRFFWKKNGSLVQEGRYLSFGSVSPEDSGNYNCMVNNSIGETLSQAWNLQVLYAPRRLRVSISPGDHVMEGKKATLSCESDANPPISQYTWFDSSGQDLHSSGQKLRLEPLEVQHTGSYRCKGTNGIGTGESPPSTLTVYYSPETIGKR
- assay remarks: ELISA, coated murine CD22, 0.01 nM Ab
Recorded OD450 values for a group of binders are listed next.

Answered cases to consult:
binder	measurement kind	result
F2.151.13 human-murine chimeric antibody (antibody, human IgG1, lambda, V domains shown, Chimeric, human IgG1 / lambda) VH: QVHLQQPGTELMKPGASVKLSCKATGYTFRDYWLEWVKQRPGHGLEWIGEILPGSGNAYYNEKFKGKATFTADTSSNTAYMQLSSLTTEDSAIYYCARVYSNWYFDAWGKGTTVTVSS VL: QAVVTQESALTTSPGETVTLTCRSSTGAVTTSNYANWVQEKPDHLFTGLIGGTNNQAPGVPARFSGSLIGDKAALTISGAQTEDEAIYFCALWFSNHWVFGGGTKLTVLG	OD450	0.07 OD450
F2.343.16 human-murine chimeric antibody (antibody, human IgG1, lambda, V domains shown, Chimeric, human IgG1 / lambda; VL tied by name) VH: QVQLKQSGPGLVQPSQSLSITCTVSGFSLTGYGVQWVRQSPGKGLEWLGVIWGGGGTDYNAAFISRLNIIKDNSKSQVFFKMNSLQADDTAIYYCARYSKYGHFDVWGTGTAVTVSS VL: QAVVTQESALTTSPGETVTLTCRSSTGAVTTSNYANWVQEKPDHLFTGLIGGTYNRVPGVPARFSGSLIGDKAALTITGAQTEDEAIYFCALWYSNHFWVFGGGTKLTVLG	OD450	0.05 OD450

// next item, OD450 requested
Query: Give its OD450 value. Item: F2.121.9 human-murine chimeric antibody (antibody, human IgG1, lambda, V domains shown, Chimeric, human IgG1 / lambda) VH: EVQLVESGGGLVKPGGSLKLSCAASGFTFSDYVMSWIRQTPEKRLEWVATISDAGSYTFYPDNLKGRFTISRDNAKNNLYLQMNHLTSEDTAFYYCAIIYFGNYGGYWGQGTLVTVSV VL: QAVVTQESALTTSPGGTVVLTCRSNTGAVTTSNYANWVQEKPDHLFTGLIGGTSNRAPGVPVRFSGSLIGDKAALTITGAQTEDDAMYFCALWYSTHWVFGGGTKLTVLG
Reply: 0.05 OD450
